# Procedure Text: qHTS screen for small molecules that inhibit ELG1-dependent DNA repair in human embryonic kidney (HEK293T) cells expressing luciferase-tagged ELG1; further: nearly all actives have a fitted effect of over 55% in size
# Stated Conditions: HEK293T ELG1-luciferase reporter, luminescence, 16 h, DNA damage induced by 5-fluorouridine; series mostly up to 46.1 µM
Out of some 330,000 compounds screened, about 7,700 (2.3%) were called active. Another 26% or so got no clear call; they are omitted. The call rests on the fitted dose curve; in most records, active means well fitted inhibition curve with a large enough effect; inconclusive means small, poorly fitted or top-dose-only effect, or effect the other way; inactive means flat fitted curve, though single readings scatter. The list comes from a sample in which actives are over-represented; it also holds close analogues and randomly drawn compounds.
A correct response names exactly one class from Y (active), N (inactive)

Use these answered entries as a reference point.
Cn1c(=O)c2c(nc(NCCNC(=O)c3ccco3)n2Cc2ccccc2F)n(C)c1=O; N
CCCCNc1nc2c(c(=O)n(C)c(=O)n2C)n1Cc1cccc(OC)c1; Y

Next molecule, please.
Outcome logged for CC(C)CCn1c(CN(C)Cc2ccccc2)nc2c1c(=O)n(C)c(=O)n2C in this assay:
Y

* * *

# Procedure Text: qHTS screen for small molecules that inhibit ELG1-dependent DNA repair in human embryonic kidney (HEK293T) cells expressing luciferase-tagged ELG1; further: nearly all actives have a fitted effect of over 55% in size
# Stated Conditions: HEK293T ELG1-luciferase reporter, luminescence, 16 h, DNA damage induced by 5-fluorouridine; series mostly up to 46.1 µM
The whole screen tested about 330,000 compounds, of which about 7,700 (2.3%) were called active. About 26% were inconclusive and are not listed. The call rests on the fitted dose curve; in most records, active means well fitted inhibition curve with a large enough effect; inconclusive means small, poorly fitted or top-dose-only effect, or effect the other way; inactive means flat fitted curve, though single readings scatter. Shown is part of a subset that was picked to be rich in actives.
Mark one answer only. Choices: y = active, n = inactive

Would you please look over these solved cases?
CC1CCCCC1NC(=O)NC(=O)COC(=O)C1=NN(c2ccccc2)C(=O)CC1 (stereo not given); n
CN(C)/N=C/c1cn(-c2ccccc2)nc1-c1cccnc1; n
CN(CC1CCCO1)S(=O)(=O)c1ccc(C(=O)Nc2ccc(F)cc2)cc1 (stereo not given); y

Status in this test for Cc1ccc(NC(=O)CCCNC(=O)c2ccc(Cl)cc2)cc1S(=O)(=O)N1CCOCC1 ?
n

Also need CN(CC1CCCO1)S(=O)(=O)c1ccc(C(=O)Nc2ccc([N+](=O)[O-])cc2)cc1 (stereo not given) , thanks.
y

Same for COc1ccc(C)cc1N(C(=O)Cn1nnc(-c2ccc(C)o2)n1)C(C(=O)NC1CCCC1)c1ccncc1 (stereo not given)
n

Same lookup for C=CCSc1nnc(N2C(=O)C(O)=C(C(=O)c3ccco3)C2c2ccc(F)cc2)s1 (stereo not given) , please.
n

Item: CN(CC(=O)Nc1ccc(F)cc1)CC(=O)N1CCCCC1
n

Request: COc1ccc(-c2nn(-c3ccccc3)cc2/C=N/Nc2ccccn2)cc1OC
y

Lookup Nc1ccc(Oc2ccc(Cl)cc2)cc1
n

* * *

# Procedure Text: qHTS screen for small molecules that inhibit ELG1-dependent DNA repair in human embryonic kidney (HEK293T) cells expressing luciferase-tagged ELG1; further: nearly all actives have a fitted effect of over 55% in size
# Stated Conditions: HEK293T ELG1-luciferase reporter, luminescence, 16 h, DNA damage induced by 5-fluorouridine; series mostly up to 46.1 µM
In all, about 330,000 compounds went through this assay and about 7,700 (2.3%) were called active. Inconclusive results (about 26%) are left out. Calls follow the shape of the dose curve; as a rule, active = well fitted inhibition curve with a large enough effect; inconclusive = small, poorly fitted or top-dose-only effect, or effect the other way; inactive = flat fitted curve, though single readings scatter. What follows is part of a selection rich in actives, with near analogues and random picks from the rest.
# valid calls are class 1 (active), class 0 (inactive); nothing else

Before answering, review these 2 worked examples.
CC(=O)NCc1ccc(-c2csc(NC(=O)CCCc3nc4ccccc4c(=O)[nH]3)n2)cc1; class 0
CCOC(=O)N1CCN(CC(=O)Nc2ccc(F)cc2)CC1; class 0

Please let me know the test result on file for Cc1ccc(C(=O)CN2C(=O)NC3(CCc4ccccc43)C2=O)c(C)c1 (stereo unspecified) .
class 0

What would you report for COc1cccc(CNC(=O)COc2cc(O)c3c(c2)OC(C)(C)CC3=O)c1 ?
class 0

Then O=C(COC(=O)CN1C(=O)C2CCCCC2C1=O)Nc1ccc(F)c(F)c1F (stereo unspecified) ?
class 0

Next: CN(C)c1ccc(C2N(C)C(=O)c3ccccc3N2C)cc1 (stereo unspecified)
class 0

Now consider COc1cc(C(=O)N[C@@H](C)C(=O)NCc2ccco2)cc(OC)c1OC and answer again.
class 0

* * *

# Procedure Text: qHTS screen for small molecules that inhibit ELG1-dependent DNA repair in human embryonic kidney (HEK293T) cells expressing luciferase-tagged ELG1; further: nearly all actives have a fitted effect of over 55% in size
# Stated Conditions: HEK293T ELG1-luciferase reporter, luminescence, 16 h, DNA damage induced by 5-fluorouridine; series mostly up to 46.1 µM
# Source text: NIH Molecular Libraries Probe Production Network [MLPCN] NIH Chemical Genomics Center [NCGC] MLPCN Grant: 1 R03 MH092164-01 Assay Provider: Kyungjae Myung, NHGRI, NIH Keywords: MLPCN, qHTS, NCGC, genotoxicity, cancer Assay Overview: Cancer cells divide rapidly compared to normal cells in the body. During cell division, cancer cells need to duplicate their genome by DNA replication. […] With this in mind, we developed a quantitative high-throughput ELG1-luciferase reporter gene assay. […]
Out of some 330,000 compounds screened, about 7,700 (2.3%) were called active. Not shown: some 26% with an inconclusive outcome. Calls come from the whole dose curve; as a rule, active = well fitted inhibition curve with a large enough effect; inconclusive = small, poorly fitted or top-dose-only effect, or effect the other way; inactive = flat fitted curve, though single readings scatter. For the sample, actives were picked, then their nearest neighbours and some compounds at random.
Pick from true (1) for active, false (0) for inactive when you respond.

Field: example entries. Status: answers known.
O=C(COC(=O)c1ccccn1)NNC(=O)c1ccc(Br)cc1; false (0)
COc1cc(C(=O)N(Cc2ccc(N(C)C)cc2)C2CCS(=O)(=O)C2)cc(OC)c1OC (configuration not stated); false (0)
C=CC[C@@H](CC(=O)N[C@@H](CO)Cc1ccccc1)C(=O)N[C@H](COC(=O)[C@H](CC=C)CC(=O)OC(C)(C)C)Cc1ccccc1; false (0)

// outcome(item) with item = CCc1ccc(OCC(=O)N(Cc2ccccc2)C2CCS(=O)(=O)C2)cc1 (configuration not stated)
false (0)

How about this compound: CSc1nc(-c2ccccc2)nc(C(Cl)Cl)n1
true (1)

Try this compound too: O=C(NC1CCCC1)C(c1ccco1)N(C(=O)c1ccco1)c1ccc(F)cc1 (configuration not stated)
false (0)

Entry to check: Cc1nn(-c2ccccc2)c(C)c1C(=O)OCC(=O)NC(=O)NC1CCCCC1
false (0)

Please do the same for COCCN(CCOC)S(=O)(=O)NC[C@H]1O[C@@H](n2cnc3c(N)ncnc32)[C@H](O)[C@@H]1O as well.
false (0)

Follow-up entry: Cc1ccccc1C(=O)N1CCC(C(=O)Nc2ccc(S(=O)(=O)N(C)C(C)C)cc2)CC1
true (1)

What do we get for CC(=O)N1c2ccc(S(=O)(=O)N3CCC(C(=O)N4CCN(c5ccccc5)CC4)CC3)cc2CC1C (configuration not stated) ?
false (0)

Also CCCCn1c(N)c(N(CC)C(=O)c2ccc(N(C)S(=O)(=O)c3ccc(C)cc3)cc2)c(=O)[nH]c1=O ?
false (0)

Do the same for COc1ccc2nc(Nc3nc(-c4cc5ccccc5oc4=O)cs3)sc2c1 please
true (1)

Please give the result for O=C(N[C@@H]1C/C=C\C[C@@H](CC(=O)N(CCO)Cc2ccccc2)C(=O)N[C@H](Cc2ccccc2)COC1=O)OCC1c2ccccc2-c2ccccc21 too.
false (0)

Entry to check: CCOc1ccccc1OCC(=O)Nc1ccccc1C(=O)NC1CC1
false (0)

And CCc1nnc(NC(=O)C2CCN(C(=O)c3ccccc3C)CC2)s1 ?
false (0)

Item: CCCS(=O)(=O)N1CCCC(C(=O)N2CCN(c3ccccc3)CC2)C1 (configuration not stated)
false (0)

And for Cc1ccc(S(=O)(=O)N2CCCC(C(=O)N3CCN(C)CC3)C2)cc1 (configuration not stated) ?
false (0)

Please give the result for COc1ccc(C(=O)c2c3ccc([N+](=O)[O-])cc3[n+]([O-])n2CCCN)cc1 too.
false (0)

Next compound: CC(C(=O)Nc1ccc(O)c(C(=O)O)c1)N1C(=O)/C(=C/c2cccs2)SC1=S (configuration not stated)
false (0)

* * *

# Procedure Text: qHTS screen for small molecules that inhibit ELG1-dependent DNA repair in human embryonic kidney (HEK293T) cells expressing luciferase-tagged ELG1; further: nearly all actives have a fitted effect of over 55% in size
# Stated Conditions: HEK293T ELG1-luciferase reporter, luminescence, 16 h, DNA damage induced by 5-fluorouridine; series mostly up to 46.1 µM
Among all 330,000 compounds or so, about 7,700 (2.3%) were called active. About 26% were inconclusive and are not listed. The call rests on the fitted dose curve; in most records, active means well fitted inhibition curve with a large enough effect; inconclusive means small, poorly fitted or top-dose-only effect, or effect the other way; inactive means flat fitted curve, though single readings scatter. Shown is part of a subset that was picked to be rich in actives.
Hi there, use one of these labels in your reply, thanks! 1.0 (active), 0.0 (inactive)

COc1ccccc1N1CCN(C(=O)c2cc(-c3ccc(Cl)c(Cl)c3)on2)CC1; 0.0
OC(COc1ccc(Br)cc1)CN1CCCC1 (configuration not stated); 0.0
CCc1cccc(NC(=O)CCC(=O)O)c1; 0.0

Could you check what this test reported for CN(CCNC(=O)c1cc2c(-c3ccccc3F)nn(C)c2s1)C1CCCCC1 ?
0.0

One more compound: O=C(c1ccccc1)N1CCN(C(=O)c2cc3nc(-c4ccccc4)cc(C(F)(F)F)n3n2)CC1
1.0
